- TEST_PROTOCOL: Pharmacokinetics of AE-PM components and their phase II metabolites in rat plasma after single oral administration (UHPLC-MS/MS, with and without sulfatase hydrolysis)
- PROTOCOL_CONDITIONS: rat, plasma, po, 50 g/kg, AUC (0-∞), CCl4 group rats; oral AE-PM 50 g/kg; plasma; n = 6
Property: AUC(0-inf); scope: individual molecules
READOUT_KIND: AUC(0-inf)

>>> result("COc1cc(O)c2c(c1)C(=O)c1cc(C)cc(O)c1C2=O [Physcion, physcion]")
"36000 ng·h/mL"
>>> result("O=C1c2cccc(O)c2C(=O)c2c(O)cc(CO)cc21 [Aloe-emodin, aloe-emodin]")
"6620 ng·h/mL"
>>> result("Oc1cc(O)c2c(c1)O[C@H](c1ccc(O)c(O)c1)[C@@H](O)C2 [Catechin, catechin]")
"1500 ng·h/mL"
>>> result("COc1cc(O)c2c(c1)C(=O)c1cc(C)cc(O[C@@H]3O[C@H](CO)[C@@H](O)[C@H](O)[C@H]3O)c1C2=O [P-glu, physcion-8-O-β-D-glucoside]")
"1450 ng·h/mL"
>>> result("OC[C@H]1O[C@@H](Oc2c(O)cc(O)cc2/C=C/c2ccc(O)cc2)[C@H](O)[C@@H](O)[C@@H]1O [TSG]")
"116000 ng·h/mL"
>>> result("Cc1cc(O)c2c(c1)C(=O)c1cc(O)cc(O)c1C2=O [Emodin, emodin]")
"5970 ng·h/mL"
>>> result("Cc1cc(O[C@@H]2O[C@H](CO)[C@@H](O)[C@H](O)[C@H]2O)c2c(c1)C(=O)c1cc(O)cc(O)c1C2=O [E-glu, emodin-8-O-β-D-glucoside]")
"14200 ng·h/mL"

Each recorded value in this set is attributed to paper PMC8245786.
